Attribution: paper PMC8890542

Assay: Cell viability assay (MTT), RAW264.7
Assay type: cell-based, mouse
Conditions: mouse, RAW264.7 cells, read-out: Cytotoxicity IC50 with RAW264.7
I'd appreciate it if you could supply IC50 at 24 h values for the items below.

Some compounds with recorded IC50 at 24 h:
| Compound | IC50 at 24 h |
| --- | --- |
| CCN1CCN(C(=O)Nc2cc(C(C)=O)c(O)cc2OC)CC1 | > 100 µM |
| COc1cc(O)c(C(C)=O)cc1NC(=O)N(C(C)C)C(C)C | > 100 µM |

Could I get IC50 at 24 h for every one of these entries?
1. COc1ccc(CNC(=O)Nc2cc(C(C)=O)c(O)cc2OC)cc1
2. Cc1ccc(-c2cc(C(F)(F)F)nn2-c2ccc(S(N)(=O)=O)cc2)cc1 [Cel, Celecoxib, reference compound]
3. COc1cc(O)c(C(C)=O)cc1NC(=O)N1CCSC1
4. COc1cc(O)c(C(C)=O)cc1NC(=O)Nc1cccc(F)c1
5. COc1cc(O)c(C(C)=O)cc1NC(=O)N1CCN(C)CC1
6. COc1ccccc1CNC(=O)Nc1cc(C(C)=O)c(O)cc1OC
7. COc1cc(O)c(C(C)=O)cc1NC(=O)NC1CC1

> 100 µM
> 100 µM
> 100 µM
> 100 µM
> 100 µM
> 100 µM
> 100 µM

Could I get IC50 at 24 h for every one of these entries?
1. COc1cc(O)c(C(C)=O)cc1NC(=O)Nc1ccccc1
2. COc1cc(O)c(C(C)=O)cc1NC(=O)NCC(F)(F)F
3. COc1cc(O)c(C(C)=O)cc1NC(=O)Nc1ccc(C)cc1
4. CONC(=O)Nc1cc(C(C)=O)c(O)cc1OC
5. COc1ccc(C(C)=O)c(O)c1
6. COc1cc(O)c(C(C)=O)cc1NC(=O)Nc1ccccc1C

["> 100 µM", "> 100 µM", "> 100 µM", "> 100 µM", "> 100 µM", "> 100 µM"]

====

Test: Human liver microsomes stability assay in vitro
Format: in vitro ADME
Conditions: human liver microsomes
Property label: half-life (h)
Answers are plain numbers, in h.

Please report the measured half-life for COc1cc(O)c(C(C)=O)cc1NC(=O)Nc1cccc(C(F)(F)F)c1 1.85

====

I'd appreciate it if you could supply melting point values for the items below.

| Smiles representation | melting point |
| --- | --- |
| COc1cc(O)c(C(C)=O)cc1NC(=O)Nc1ccc(C)cc1 | 218 to 219 °C |

Could I get melting point for every one of these entries?
1. COc1cc(O)c(C(C)=O)cc1NC(=O)NC1CC1
2. COc1cc(O)c(C(C)=O)cc1NC(=O)N(C(C)C)C(C)C

["191 to 192 °C", "148 to 149 °C"]

Could I get melting point for every one of these entries?
1. COc1ccc(CNC(=O)Nc2cc(C(C)=O)c(O)cc2OC)cc1
2. COc1cc(O)c(C(C)=O)cc1NC(=O)N1CCSC1

1: 233 to 234 °C; 2: 172 to 174 °C

====

I'd appreciate it if you could supply IC50 at 24 h values for the items below.
Experiment: Cell viability assay (MTT), LO2
Format: cell-based
Settings: human, LO2 cells, read-out: Cytotoxicity IC50 with LO2

Some compounds with recorded IC50 at 24 h:
| Compound | Measured |
| --- | --- |
| COc1cc(O)c(C(C)=O)cc1NC(=O)N1CCCC1 [Compound A12] | > 100 µM |
| COc1cc(O)c(C(C)=O)cc1NC(=O)Nc1ccc(C(F)(F)F)cc1 [Compound B11] | > 100 µM |

Could I get IC50 at 24 h for every one of these entries?
1. COc1cccc(NC(=O)Nc2cc(C(C)=O)c(O)cc2OC)c1 [Compound B8]
2. CCNC(=O)Nc1cc(C(C)=O)c(O)cc1OC [Compound A6]
3. COc1ccc(C(C)=O)c(O)c1 [Pae, paeonol]
4. CCN1CCN(C(=O)Nc2cc(C(C)=O)c(O)cc2OC)CC1 [Compound A13]
5. COc1ccc(CCNC(=O)Nc2cc(C(C)=O)c(O)cc2OC)cc1 [Compound D3]
6. COc1cc(O)c(C(C)=O)cc1NC(=O)Nc1cccc(C(F)(F)F)c1 [Compound B12]
7. COc1cc(O)c(C(C)=O)cc1NC(=O)N(C)C [Compound A7]
8. COc1cc(O)c(C(C)=O)cc1NC(=O)NCCc1ccccc1 [Compound D1]

1: > 100 µM; 2: > 100 µM; 3: > 100 µM; 4: > 100 µM; 5: > 100 µM; 6: > 100 µM; 7: > 100 µM; 8: > 100 µM
